Biological target: Glutaminase kidney isoform, mitochondrial (Homo sapiens, UniProt O94925)
Sequence (O94925 whole entry): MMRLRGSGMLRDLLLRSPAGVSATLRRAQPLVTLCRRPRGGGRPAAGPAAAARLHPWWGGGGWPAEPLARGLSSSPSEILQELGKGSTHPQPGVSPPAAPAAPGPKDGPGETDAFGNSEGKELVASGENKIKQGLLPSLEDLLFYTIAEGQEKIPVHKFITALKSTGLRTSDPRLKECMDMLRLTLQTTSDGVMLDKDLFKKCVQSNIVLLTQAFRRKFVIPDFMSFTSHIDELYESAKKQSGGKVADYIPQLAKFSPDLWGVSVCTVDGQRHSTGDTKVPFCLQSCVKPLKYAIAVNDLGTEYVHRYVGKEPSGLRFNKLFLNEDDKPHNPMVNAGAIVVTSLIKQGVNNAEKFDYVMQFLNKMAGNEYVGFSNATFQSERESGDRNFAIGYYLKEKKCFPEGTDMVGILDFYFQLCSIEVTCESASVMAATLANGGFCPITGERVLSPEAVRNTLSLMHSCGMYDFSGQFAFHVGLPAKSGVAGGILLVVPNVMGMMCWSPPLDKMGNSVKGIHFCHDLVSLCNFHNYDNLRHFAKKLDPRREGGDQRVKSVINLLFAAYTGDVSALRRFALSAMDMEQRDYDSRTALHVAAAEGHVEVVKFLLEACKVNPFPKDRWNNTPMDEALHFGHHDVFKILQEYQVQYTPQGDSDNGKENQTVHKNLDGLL
Assay: Inhibition of kidney-type glutaminase in human BT20 cells assessed as reduction in glutamate level
Assay type: cell-based
Measured metric: pIC50
The meaning of pIC50 here: minus log10 of the concentration in molar units.

Per the record, Cn1ccc(CC(=O)Nc2nnc([C@H]3C[C@@]4(C[C@H](c5nnc(NC(=O)Cc6ccn(C)n6)s5)C4)C3)s2)n1 (some centres undefined) has pIC50 of 8.57

Per the record, Cn1ccc(CC(=O)Nc2nnc([C@H]3C[C@]4(C[C@H](c5nnc(NC(=O)Cc6ccn(C)n6)s5)C4)C3)s2)n1 (some centres undefined) has pIC50 of 9.30

Per the record, `O=C(Cc1cccc(OC(F)(F)F)c1)Nc1ccc(C[C@@H]2CC[C@H](c3nnc(NC(=O)Cc4ccccn4)s3)C2)nn1` has pIC50 of 10.00

Per the record, `O=C(Cc1cccc(OC(F)(F)F)c1)Nc1ccc(C[C@H]2C[C@@H](c3nnc(NC(=O)Cc4ccccn4)s3)C2)nn1` has pIC50 of 9.70

---

Would you mind telling me the reported IC50 of each entry?
Target: Glutaminase kidney isoform, mitochondrial (Homo sapiens, UniProt O94925)
Assay: Inhibition of GAC (unknown origin) assessed as NADH formation using 1.8 to 13 mM glutamine as substrate preincubated for 60 mins by resorufin dye based assay

Per the record, `O=C(Cc1ccccn1)Nc1nnc([C@@H]2CCC[C@H](c3nnc(NC(=O)Cc4ccccn4)s3)C2)s1` has IC50 of 1000 to 2000 nM

Per the record, `O=C(Cc1ccccn1)Nc1ccc([C@H]2CCC[C@H](c3ccc(NC(=O)Cc4ccccn4)nn3)C2)nn1` has IC50 of < 100 nM

Per the record, `O=C(Cc1ccccn1)Nc1nnc([C@H]2CC[C@H](c3nnc(NC(=O)Cc4ccccn4)s3)C2)s1` has IC50 of < 100 nM

Per the record, `CC(=O)Nc1ccc([C@@H]2CCC[C@H](c3ccc(NC(C)=O)nn3)C2)nn1` has IC50 of < 100 nM
